Target: rhBACE-1 β-Secretase recombinant human (Homo sapiens)
Construct: purchased R&D Systems 931-AS
Test: BACE assay (FRET)
Format: biochemical
Conditions: compound at 1 μM; percentage of enzyme activity
parameter.measured: % of BACE activity

compound	value.measured
CC(C)=CCC/C(C)=C/CN(C/C=C(\C)CCC=C(C)C)c1cccc(C(=O)O)c1 [Compound 24]	24 ± 12%
COc1ccc(C(=O)N2CCN(CCO)CC2)cc1N(CC=C(C)CCC=C(C)C)CC=C(C)CCC=C(C)C [Compound 39]	100%
COC(=O)c1ccc(OC(C)=O)c(N(C/C=C(\C)CCC=C(C)C)C/C=C(\C)CCC=C(C)C)c1 [Compound 31]	89.5 ± 18%
CCCOc1ccc(C(=O)OC)cc1NC/C=C(\C)CC/C=C(\C)CCC=C(C)C [Compound 43]	88.3 ± 3.8%
COC(=O)c1ccc(OC)c(NCC=C(C)CCC=C(C)COC2CCCCO2)c1 (stereo not shown) [Compound 36]	45 ± 12%
COc1ccc(C(=O)O)cc1NC/C=C(\C)CC/C=C(\C)CCC=C(C)C [Compound 5]	50 ± 9%
COC(=O)c1ccc(OC)c(N(CC=C(C)CCC=C(C)CCC=C(C)C)C(=O)OC(C)(C)C)c1 [Compound 33]	92 ± 4%
CC(C)=CCC/C(C)=C/CC/C(C)=C/CN(C/C=C(\C)CC/C=C(\C)CCC=C(C)C)c1cccc(C(=O)O)c1 [Compound 23]	41 ± 12%
COCOc1ccc(C(=O)OC)cc1NC/C=C(\C)CC/C=C(\C)CCC=C(C)C [Compound 14]	60 ± 17%
CC(C)=CCC/C(C)=C/CC/C(C)=C/CNc1cccc(C(=O)O)c1 [Compound 9]	89.5 ± 9%
COc1ccc(C(=O)NC(=N)n2cccn2)cc1N(C/C=C(\C)CCC=C(C)C)C/C=C(\C)CCC=C(C)C [Compound 41]	73 ± 2%
COC(=O)c1ccc(OC)c(N(CC=C(C)CCC=C(C)COC2CCCCO2)CC=C(C)CCC=C(C)COC2CCCCO2)c1 (stereo not shown) [Compound 37]	50 ± 4%
COc1ccc(C(=O)N2CCN(CC=Cc3ccccc3)CC2)cc1N(CC=C(C)CCC=C(C)C)CC=C(C)CCC=C(C)C [Compound 38]	81.5 ± 9%
CCC(C)Oc1ccc(C(=O)OC)cc1NCC=C(C)CCC=C(C)CCC=C(C)C (stereo not shown) [Compound 40]	100%
COC(=O)c1ccc(O)c(N(C/C=C(\C)CCC=C(C)C)C/C=C(\C)CCC=C(C)C)c1 [Compound 29]	2.5 ± 3.5%
COc1ccc(C(=O)NCCc2c[nH]cn2)cc1N(C/C=C(\C)CCC=C(C)C)C/C=C(\C)CCC=C(C)C [Compound 46]	122.5 ± 23.3%

----------
Target: Recombinant human glycogen synthase kinase 3 beta (Homo sapiens)
Assay: GSK-3 beta inhibition assay
Format: biochemical
Conditions: 0.5 h, compound at 25 μM; percentage of enzyme activity
Experimental: GSK-3 beta Inhibition Assay The GSK-3 beta activity of the compounds of formula (I) according to the present invention was determined by incubation of a mixture of recombinant human GSK-3 enzyme, a phosphate source and GSK-3 substrate in the presence and in the absence of the corresponding test compound, and by measuring the GSK-3 activity of this mixture. The compounds where tested at final concentrations of 25 and 50 μM. […]

compound	remaining activity at 25 µM, %
COc1ccc(C(=O)NC(=N)n2cccn2)cc1N(C/C=C(\C)CCC=C(C)C)C/C=C(\C)CCC=C(C)C [Compound 41]	88.9
CC(C)=CCC/C(C)=C/CC/C(C)=C/CNc1cc(C(=O)O)ccc1O [Compound 48]	105
COC(=O)c1ccc(OC(C)=O)c(N(C/C=C(\C)CCC=C(C)C)C/C=C(\C)CCC=C(C)C)c1 [Compound 31]	108
COc1ccc(C(=O)O)cc1NC/C=C(\C)CC/C=C(\C)CCC=C(C)C [Compound 5]	70.2

----------
Target: rhBACE-1 β-Secretase recombinant human (Homo sapiens, UniProt P56817)
Construct: purchased R&D Systems 931-AS
Sequence (P56817 46-457 limits assumed): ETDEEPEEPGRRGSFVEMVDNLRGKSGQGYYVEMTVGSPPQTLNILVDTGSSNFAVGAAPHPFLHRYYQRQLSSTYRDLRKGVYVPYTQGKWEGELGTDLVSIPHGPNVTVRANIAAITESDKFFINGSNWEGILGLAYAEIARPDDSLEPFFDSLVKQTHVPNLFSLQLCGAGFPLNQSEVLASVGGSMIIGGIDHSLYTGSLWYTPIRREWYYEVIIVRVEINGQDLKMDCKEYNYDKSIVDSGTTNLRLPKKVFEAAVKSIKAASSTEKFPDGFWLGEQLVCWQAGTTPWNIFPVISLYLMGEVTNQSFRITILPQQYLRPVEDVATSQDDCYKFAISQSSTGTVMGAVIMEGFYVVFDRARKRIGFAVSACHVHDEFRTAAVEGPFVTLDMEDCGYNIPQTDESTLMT
Experiment: BACE assay (FRET)
Type: biochemical
Conditions: compound at 1 μM; percentage of enzyme activity

compound	test.system	% of BACE activity
CC(C)=CCC/C(C)=C/CC/C(C)=C/CNc1cc(C(=O)O)ccc1O [Compound 48]	rhBACE-1 β-Secretase recombinant human (Homo sapiens, UniProt P56817)	100%
COC(=O)c1ccc(OC)c(N(C/C=C(\C)CC/C=C(\C)CCC=C(C)C)C/C=C(\C)CC/C=C(\C)CCC=C(C)C)c1 [Compound 18]	rhBACE-1 β-Secretase recombinant human (Homo sapiens, UniProt P56817)	100%
COc1ccccc1N(C/C=C(\C)CCC=C(C)C)C/C=C(\C)CCC=C(C)C [Compound 27]	rhBACE-1 β-Secretase recombinant human (Homo sapiens, UniProt P56817)	88.5 ± 0.7%
COC(=O)c1ccc(O)c(N(CC=C(C)CCC=C(C)CCC=C(C)C)CC=C(C)CCC=C(C)CCC=C(C)C)c1 [Compound 28]	rhBACE-1 β-Secretase recombinant human (Homo sapiens, UniProt P56817)	83 ± 12%
COC(=O)c1ccc(OC)c(NCC=C(C)CCC=C(C)CCC=C(C)CCC=C(C)C)c1 [Compound 34]	rhBACE-1 β-Secretase recombinant human (Homo sapiens, UniProt P56817)	100%
COC(=O)c1ccc(OC)c(N(CC=C(C)CCC=C(C)CCC=C(C)CCC=C(C)C)CC=C(C)CCC=C(C)CCC=C(C)CCC=C(C)C)c1 [Compound 35]	rhBACE-1 β-Secretase recombinant human (Homo sapiens, UniProt P56817)	91 ± 9%
COC(=O)c1cccc(NC/C=C(\C)CC/C=C(\C)CCC=C(C)C)c1 [Compound 7]	rhBACE-1 β-Secretase recombinant human (Homo sapiens, UniProt P56817)	0%
COc1ccccc1NCC=C(C)CCC=C(C)CCC=C(C)C [Compound 12]	rhBACE-1 β-Secretase recombinant human (Homo sapiens, UniProt P56817)	94 ± 8%
CC(C)=CCCC(C)=CCNc1cccc(C(=O)O)c1 [Compound 13]	rhBACE-1 β-Secretase recombinant human (Homo sapiens, UniProt P56817)	75 ± 5%
COc1ccc(C(=O)O)cc1N(CC=C(C)CCC=C(C)CCC=C(C)C)CC=C(C)CCC=C(C)CCC=C(C)C [Compound 19]	rhBACE-1 β-Secretase recombinant human (Homo sapiens, UniProt P56817)	60 ± 14%
COC(=O)c1ccc(OC)c(N(C/C=C(\C)CCC=C(C)C)C/C=C(\C)CCC=C(C)C)c1 [Compound 17]	rhBACE-1 β-Secretase recombinant human (Homo sapiens, UniProt P56817)	43 ± 15%
COC(=O)c1cccc(N(CC=C(C)CCC=C(C)C)CC=C(C)CCC=C(C)C)c1 [Compound 20]	rhBACE-1 β-Secretase recombinant human (Homo sapiens, UniProt P56817)	76 ± 25%
COC(=O)c1ccc(OC)c(N(C/C=C(\C)CCC=C(C)C)C/C=C(\C)CCC=C(C)C)c1 [Compound 30]	rhBACE-1 β-Secretase recombinant human (Homo sapiens, UniProt P56817)	48 ± 6%

----------
Molecular target: Recombinant human glycogen synthase kinase 3 beta (Homo sapiens, UniProt P49841)
Sequence (P49841 whole entry): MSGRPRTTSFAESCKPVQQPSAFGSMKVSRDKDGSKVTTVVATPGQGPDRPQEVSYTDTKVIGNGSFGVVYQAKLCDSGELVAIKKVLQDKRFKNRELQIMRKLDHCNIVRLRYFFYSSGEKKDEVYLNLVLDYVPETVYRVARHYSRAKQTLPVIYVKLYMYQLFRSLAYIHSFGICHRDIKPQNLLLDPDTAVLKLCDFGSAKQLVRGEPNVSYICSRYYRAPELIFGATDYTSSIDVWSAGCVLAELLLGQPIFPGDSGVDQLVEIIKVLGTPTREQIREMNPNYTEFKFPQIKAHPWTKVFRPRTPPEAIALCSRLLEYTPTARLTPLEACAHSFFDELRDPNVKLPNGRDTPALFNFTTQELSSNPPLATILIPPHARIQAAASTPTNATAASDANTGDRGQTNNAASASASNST
Test: GSK-3 beta inhibition assay
Assay type: biochemical
Conditions: 0.5 h, compound at 25 μM; percentage of enzyme activity
parameter.measured: remaining activity at 25 µM (%)

molecule	test.system	value.measured
COC(=O)c1ccc(OC)c(N(CC=C(C)CCC=C(C)COC2CCCCO2)CC=C(C)CCC=C(C)COC2CCCCO2)c1 (centres unmarked)	Recombinant human glycogen synthase kinase 3 beta (Homo sapiens, UniProt P49841)	24.6
COC(=O)c1cccc(N(CC=C(C)CCC=C(C)C)CC=C(C)CCC=C(C)C)c1	Recombinant human glycogen synthase kinase 3 beta (Homo sapiens, UniProt P49841)	67.3
COc1ccc(C(=O)/N=C(\N)NCCO)cc1N(C/C=C(\C)CCC=C(C)C)C/C=C(\C)CCC=C(C)C	Recombinant human glycogen synthase kinase 3 beta (Homo sapiens, UniProt P49841)	34.7
COC(=O)c1ccc(OC)c(NCC=C(C)CCC=C(C)COC2CCCCO2)c1 (centres unmarked)	Recombinant human glycogen synthase kinase 3 beta (Homo sapiens, UniProt P49841)	79.7
COc1ccc(C(=O)N2CCN(CC=Cc3ccccc3)CC2)cc1N(CC=C(C)CCC=C(C)C)CC=C(C)CCC=C(C)C	Recombinant human glycogen synthase kinase 3 beta (Homo sapiens, UniProt P49841)	23.6
CC(C)=CCC/C(C)=C/CN(C/C=C(\C)CCC=C(C)C)c1cccc(C(=O)O)c1	Recombinant human glycogen synthase kinase 3 beta (Homo sapiens, UniProt P49841)	37.4
COc1ccc(C(=O)N2CCN(CCO)CC2)cc1N(CC=C(C)CCC=C(C)C)CC=C(C)CCC=C(C)C	Recombinant human glycogen synthase kinase 3 beta (Homo sapiens, UniProt P49841)	55.1
COc1ccccc1NCC=C(C)CCC=C(C)CCC=C(C)C	Recombinant human glycogen synthase kinase 3 beta (Homo sapiens, UniProt P49841)	74.8

Data origin: patent US20100041665A1
